# procedure.text: in vivo
# Design: species or system mice
# protocol.conditions: mouse, in vivo, po, 50 mg/kg, mice, oral 50 mg/kg, 5 min to 8 h; read-out: tissue-to-plasma concentration ratio, colon, range
quantity.kind: Kp

molecule | result
CC(C)(C)C(=O)O[C@@H]1[C@@H]2[C@H]3C[C@H](C[C@@H]1N3Cc1ccccn1)CN2C(=O)CC(F)(F)F (relative stereo) [Formula 1] | 11.6 to 326

* * *

# procedure.text: in vivo
# Design: species or system mice
# protocol.conditions: mouse, in vivo, po, 50 mg/kg, mice, oral 50 mg/kg, 5 min to 8 h; read-out: tissue-to-plasma concentration ratio, cecum

molecule | Kp
CC(C)(C)C(=O)O[C@@H]1[C@@H]2[C@H]3C[C@H](C[C@@H]1N3Cc1ccccn1)CN2C(=O)CC(F)(F)F (relative stereo) | 29.2

* * *

# procedure.text: in vivo
# Set-up: species or system mice
# protocol.conditions: mouse, in vivo, po, 50 mg/kg, mice, oral 50 mg/kg, 5 min to 8 h; read-out: tissue-to-plasma concentration ratio, kidney, range

compound | Kp
CC(C)(C)C(=O)O[C@@H]1[C@@H]2[C@H]3C[C@H](C[C@@H]1N3Cc1ccccn1)CN2C(=O)CC(F)(F)F (relative stereo) | 4.3 to 26.8

* * *

# procedure.text: in vitro
# Type: in vitro ADME
# protocol.conditions: mouse liver microsomes, 1 μM; read-out: intrinsic clearance (CLint)
quantity.kind: microsomal CLint

compound | quantity.kind | result
CC(C)(C)C(=O)O[C@@H]1[C@@H]2[C@H]3C[C@H](C[C@@H]1N3Cc1ccccn1)CN2C(=O)CC(F)(F)F (relative stereo) | microsomal CLint | > 346 µL/min/mg

* * *

# procedure.text: in vivo
# Design: species or system mice
# protocol.conditions: mouse, in vivo, po, 50 mg/kg, mice, oral 50 mg/kg, 5 min to 8 h; read-out: tissue-to-plasma concentration ratio, lung, range

molecule | Kp
CC(C)(C)C(=O)O[C@@H]1[C@@H]2[C@H]3C[C@H](C[C@@H]1N3Cc1ccccn1)CN2C(=O)CC(F)(F)F (relative stereo) | 5.1 to 59.9

* * *

# procedure.text: in vitro
# Format: in vitro ADME
# protocol.conditions: human, Caco-2; basolateral-to-apical
quantity.kind: Papp B→A

compound | result
CC(C)(C)C(=O)O[C@@H]1[C@@H]2[C@H]3C[C@H](C[C@@H]1N3Cc1ccccn1)CN2C(=O)CC(F)(F)F (relative stereo) | 68.3 ×10⁻⁶ cm/s

* * *

# procedure.text: in vitro
# Assay type: in vitro ADME
# protocol.conditions: human liver microsomes, 1 μM; read-out: intrinsic clearance (CLint)
quantity.kind: microsomal CLint (µL/min/mg)

molecule | result.number
CC(C)(C)C(=O)O[C@@H]1[C@@H]2[C@H]3C[C@H](C[C@@H]1N3Cc1ccccn1)CN2C(=O)CC(F)(F)F (relative stereo) | 174

* * *

# procedure.text: in vivo
# Set-up: species or system mice
# protocol.conditions: mouse, in vivo, sc, Brain, Mean
quantity.kind: Cmax (ng/mL)

compound | quantity.kind | unit.of.measure | result.number
CC(C)(C)C(=O)O[C@@H]1[C@@H]2[C@H]3C[C@H](C[C@@H]1N3Cc1ccccn1)CN2C(=O)CC(F)(F)F (relative stereo) | Cmax | ng/mL | 1380

* * *

# procedure.text: in vivo
# Design: species or system mice
# protocol.conditions: mouse, in vivo, sc, Spinal Cord, Mean

compound | Cmax / ng/mL
CC(C)(C)C(=O)O[C@@H]1[C@@H]2[C@H]3C[C@H](C[C@@H]1N3Cc1ccccn1)CN2C(=O)CC(F)(F)F (relative stereo) | 11900

* * *

# procedure.text: in vitro
# Assay type: in vitro ADME
# protocol.conditions: mouse liver microsomes, 1 μM

compound | half-life
CC(C)(C)C(=O)O[C@@H]1[C@@H]2[C@H]3C[C@H](C[C@@H]1N3Cc1ccccn1)CN2C(=O)CC(F)(F)F (relative stereo) | < 4 min

* * *

# procedure.text: in vivo
# Design: species or system mice
# protocol.conditions: mouse, in vivo, Brain, second block of the table, route not given, Mean
# Procedure: Tissue distribution studies were conducted by administration of the compound to mice at a dose of 50 mg/kg orally and intravenously. Plasma and tissue samples were collected at various times from 5 min to 8 h. […]

compound | unit.of.measure | Cmax
CC(C)(C)C(=O)O[C@@H]1[C@@H]2[C@H]3C[C@H](C[C@@H]1N3Cc1ccccn1)CN2C(=O)CC(F)(F)F (relative stereo) | ng/mL | 6750

* * *

# procedure.text: in vitro
# Format: in vitro ADME
# protocol.conditions: human plasma, 1 μM; read-out: plasma protein bound (converted)
# Experimental: The plasma protein binding assay for Formula 1 was conducted in mouse and human plasma at a single concentration of 1 μM using the method of equilibrium dialysis. […] The plasma protein binding of the compound is acceptable.

compound | fraction unbound
CC(C)(C)C(=O)O[C@@H]1[C@@H]2[C@H]3C[C@H](C[C@@H]1N3Cc1ccccn1)CN2C(=O)CC(F)(F)F (relative stereo) | 0.08
